Experiment Summary: Three time point assay for plasma, brain and testes distribution after oral dosing
Assay type: in vivo, rat
Experimental Context: rat, oral dosing, time point 2 h
Just a reminder that ties go to FALSE: only Kp testes/plasma strictly below 0.3 counts as TRUE.

*Q* Would you kindly verify if Kp testes/plasma of Cc1cc(C)cc(Nc2ccc3ncc(C(=O)Nc4cc(-c5noc([C@H]6C[C@@H]6F)n5)ccc4C)n3c2)c1 is strictly less than 0.3?
*A* FALSE

*Q* Would you kindly verify if Kp testes/plasma of COC(=O)N1CC(c2nc(-c3ccc(C(F)F)c(NC(=O)c4cnc5ccccn45)c3)no2)C1 is strictly less than 0.3?
*A* FALSE

*Q* Would you kindly verify if Kp testes/plasma of Cc1ccc(-c2noc([C@H](C)O)n2)cc1NC(=O)c1cnc2ccccn12 is strictly less than 0.3?
*A* FALSE

*Q* Would you kindly verify if Kp testes/plasma of Cc1ccc(-c2noc([C@H]3CC(F)(F)CN3)n2)cc1NC(=O)c1cnc2ccccn12 is strictly less than 0.3?
*A* TRUE

*Q* Would you kindly verify if Kp testes/plasma of Cc1ccc(-c2noc(CC(C)O)n2)cc1NC(=O)c1cnc2ccccn12 (racemic) is strictly less than 0.3?
*A* TRUE

====

Test Target: BCRP (BCRP-MDCKII monolayer) (Homo sapiens, UniProt Q9UNQ0)
Construct: host or cells: MDCKII (canine kidney) cells
Sequence (Q9UNQ0 1-655): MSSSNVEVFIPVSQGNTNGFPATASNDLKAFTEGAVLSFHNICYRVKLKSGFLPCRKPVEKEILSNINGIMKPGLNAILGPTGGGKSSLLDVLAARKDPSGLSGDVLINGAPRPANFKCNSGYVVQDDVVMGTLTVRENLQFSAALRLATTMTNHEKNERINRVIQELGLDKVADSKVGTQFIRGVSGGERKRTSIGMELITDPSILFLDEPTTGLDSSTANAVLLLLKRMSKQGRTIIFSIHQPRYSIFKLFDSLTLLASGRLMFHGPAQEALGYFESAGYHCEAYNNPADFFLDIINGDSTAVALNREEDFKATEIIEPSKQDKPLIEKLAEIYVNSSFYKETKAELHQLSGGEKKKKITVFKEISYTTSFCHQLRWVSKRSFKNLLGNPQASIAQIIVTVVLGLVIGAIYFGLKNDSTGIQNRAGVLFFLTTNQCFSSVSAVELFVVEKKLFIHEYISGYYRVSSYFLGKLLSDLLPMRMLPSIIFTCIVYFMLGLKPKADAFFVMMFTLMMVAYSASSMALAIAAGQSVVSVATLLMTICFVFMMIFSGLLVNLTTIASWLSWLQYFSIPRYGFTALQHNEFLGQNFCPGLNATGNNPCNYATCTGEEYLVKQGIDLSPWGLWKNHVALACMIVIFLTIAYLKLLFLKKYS
Experiment Summary: MDCKII-BCRP bidirectional transport assay
Format: in vitro ADME
Short version: MDCK-BCRP: Efflux Ratio at least 10 is condition met, less is condition not met.

- Cc1ccc(-c2noc(CC(C)O)n2)cc1NC(=O)c1cnc2ccccn12 (racemic): condition not met
- COC(=O)N1CC(c2nc(-c3ccc(C)c(NC(=O)c4cnn5cc(Br)ccc45)c3)no2)C1: condition not met
- Cc1ccc(-c2noc([C@H]3CCC(=O)N3)n2)cc1NC(=O)c1cnc2ccccn12 (racemic): condition met
- Cc1ccc(-c2noc(C3CC(F)C3)n2)cc1NC(=O)c1cnc2ccccn12 (centres unmarked): condition not met
- Cc1ccc(-c2noc([C@@H]3CCCO3)n2)cc1NC(=O)c1cnc2ccccn12: condition not met
- Cc1ccc(-c2noc(CC(=O)O)n2)cc1NC(=O)c1cnc2ccccn12: condition not met
- Cc1ccc(-c2noc(C(C)NS(C)(=O)=O)n2)cc1NC(=O)c1cnc2ccccn12 (single isomer, unassigned) [Compound I-237]: condition met
- CCOc1ccn2c(C(=O)Nc3cc(-c4noc([C@H]5C[C@@H]5F)n4)ccc3C)cnc2c1: condition not met
- Cc1ccc(-c2noc(C3CC4(CCC4)C3)n2)cc1NC(=O)c1cnc2ccccn12: condition not met
- COC(=O)N1CC(c2nc(-c3ccc(C)c(NC(=O)c4cnc5cc(OC[C@H](C)O)ccn45)c3)no2)C1: condition met

# ---- query compound ----
*Q* Identify whether the reported MDCK-BCRP: Efflux Ratio of the following compound is 10 or greater: COC(=O)N1CC(c2nc(-c3ccc(C)c(NC(=O)c4cnc5cc(OC(C)(C)CO)ccn45)c3)no2)C1
*A* condition met
